The origin of these recorded values is ChEMBL document CHEMBL1147420.

# tested_target: UniProtKB P08170
# Sequence (P08170 whole entry): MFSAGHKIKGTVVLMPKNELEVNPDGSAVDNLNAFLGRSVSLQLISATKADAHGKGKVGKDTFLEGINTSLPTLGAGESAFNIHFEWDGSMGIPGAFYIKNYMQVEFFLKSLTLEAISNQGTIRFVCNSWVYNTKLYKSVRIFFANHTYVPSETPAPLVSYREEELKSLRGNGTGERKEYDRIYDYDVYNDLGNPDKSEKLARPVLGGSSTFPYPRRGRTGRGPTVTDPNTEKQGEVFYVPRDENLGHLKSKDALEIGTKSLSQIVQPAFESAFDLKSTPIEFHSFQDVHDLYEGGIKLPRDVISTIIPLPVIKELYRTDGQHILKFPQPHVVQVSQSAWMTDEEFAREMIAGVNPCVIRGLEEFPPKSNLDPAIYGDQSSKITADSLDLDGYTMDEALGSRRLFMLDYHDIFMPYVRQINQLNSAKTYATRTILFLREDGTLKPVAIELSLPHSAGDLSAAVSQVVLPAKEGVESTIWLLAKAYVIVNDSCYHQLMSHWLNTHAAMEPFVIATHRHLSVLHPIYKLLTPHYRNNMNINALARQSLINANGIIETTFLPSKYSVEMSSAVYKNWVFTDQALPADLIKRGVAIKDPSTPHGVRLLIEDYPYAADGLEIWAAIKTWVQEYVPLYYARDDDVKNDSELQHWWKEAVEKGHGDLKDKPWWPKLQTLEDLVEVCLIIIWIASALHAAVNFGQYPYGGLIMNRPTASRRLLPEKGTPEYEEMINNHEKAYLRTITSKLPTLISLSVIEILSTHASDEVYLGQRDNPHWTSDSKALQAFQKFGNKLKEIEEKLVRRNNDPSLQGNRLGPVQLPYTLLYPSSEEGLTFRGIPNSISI
# test_method_notes: Compound was evaluated for in vitro inhibition of soybean lipoxygenase at 0.1 mM concentration
# Type: functional
# inhibition annotations
# number only, unit % dropped from output

Reference set (6 entries):
smiles_repr | unit_name | value
O=c1ccc2ccc(/C=N/c3ccccc3)cc2o1 | % | 54.3
O=c1ccc2ccc(/C=N/Nc3ccccc3)cc2o1 | % | 77.4
CN/N=C/c1ccc2ccc(=O)oc2c1 | % | 70.8
O=c1ccc2ccc(/C=N/N=C/c3ccc4ccc(=O)oc4c3)cc2o1 | % | 8.6
O=Cc1ccc2ccc(=O)oc2c1 | % | 8.6
O=c1ccc2ccc(/C=N/O)cc2o1 | % | 37.2

Problem: Look up inhibition for this compound: `Cc1ccc2ccc(=O)oc2c1`
Result: 73.5

---

In this section, each of the compounds is paired with its reported RA.
# test_method_notes: Interaction percent with DPPH after 20 minutes was determined at 0.2 mM concentration
# Format: functional
Please give a number only; it is taken to be in %.

compound | unit_name | RA
CN/N=C/c1ccc2ccc(=O)oc2c1 | % | 84.8
Cc1ccc2ccc(=O)oc2c1 | % | 1.61

Then there is this compound:
Problem: Give the measured RA of `O=c1ccc2ccc(/C=N/N=C/c3ccc4ccc(=O)oc4c3)cc2o1` .
Result: 6.3

---

# inhibition per entry
# tested_target: UniProt:P08170
# test_method_notes: Compound was evaluated for in vitro inhibition of soybean lipoxygenase at 1 mM concentration
# Assay type: functional
# unit: % | format: bare number

Worked cases, answers included:
molecule | value
O=c1ccc2ccccc2o1 | 15.1
O=Cc1ccc2ccc(=O)oc2c1 | 89.7
CO/N=C/c1ccc2ccc(=O)oc2c1 | 100
CN/N=C/c1ccc2ccc(=O)oc2c1 | 100
O=c1ccc2ccc(/C=N/c3ccccc3)cc2o1 | 100
CC(O)Cc1ccc2ccc(=O)oc2c1 (stereo not given) | 100

Problem: Return inhibition measured with UniProt:P08170 given this molecule: `O=c1ccc2ccc(/C=N/N=C/c3ccc4ccc(=O)oc4c3)cc2o1`
Result: 10.2

Problem: `O=c1ccc2ccc(/C=N/Nc3ccccc3)cc2o1` , same question.
Result: 71.2

Problem: For `Cc1ccc2ccc(=O)oc2c1` then?
Result: 88.9

Problem: Would you kindly repeat that for `O=c1ccc2ccc(/C=N/O)cc2o1` ?
Result: 98.8

---

Recorded inhibition for the following compounds
# tested_target: Serine protease 1 (Homo sapiens) (UniProt P07477)
# Sequence (P07477 whole entry): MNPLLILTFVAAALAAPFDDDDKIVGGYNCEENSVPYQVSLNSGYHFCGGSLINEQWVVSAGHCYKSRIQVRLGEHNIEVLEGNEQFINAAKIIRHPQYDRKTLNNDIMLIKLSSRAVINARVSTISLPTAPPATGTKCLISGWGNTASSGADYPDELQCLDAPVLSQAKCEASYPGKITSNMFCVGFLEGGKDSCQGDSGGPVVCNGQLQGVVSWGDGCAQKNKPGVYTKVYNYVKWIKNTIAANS
# test_method_notes: Compound was evaluated for in vitro inhibition of trypsin acting as esterase at 0.1 mM concentration
# Type: functional
Provide only the numeric value, understood in %.

compound | tested_target | value
O=c1ccc2ccccc2o1 [COUMARIN] | Serine protease 1 (Homo sapiens) (UniProt P07477) | 5
O=Cc1ccc2ccc(=O)oc2c1 | Serine protease 1 (Homo sapiens) (UniProt P07477) | 12.6
O=c1ccc2ccc(/C=N/Nc3ccccc3)cc2o1 | Serine protease 1 (Homo sapiens) (UniProt P07477) | 31.4

Moving on to the next compound.
Problem: Enter reported inhibition observed with Serine protease 1 (Homo sapiens) (UniProt P07477) for `O=c1ccc2ccc(/C=N/c3ccccc3)cc2o1`
Result: 22.6

---

# tested_target: Serine protease 1 (Homo sapiens) (UniProt P07477)
# test_method_notes: Compound was evaluated for in vitro inhibition of trypsin acting as esterase at 0.1 mM concentration
# Format: functional
Could you label it criterion met if measured inhibition is 20% or higher, and criterion not met otherwise?

Consider the following illustrative entries.
compound | answer_label
CC(O)Cc1ccc2ccc(=O)oc2c1 (configuration not stated) | criterion met
Cc1ccc2ccc(=O)oc2c1 | criterion not met
CO/N=C/c1ccc2ccc(=O)oc2c1 | criterion met

Problem: Confirm if inhibition reported for the compound `O=c1ccc2ccc(/C=N/N=C/c3ccc4ccc(=O)oc4c3)cc2o1` is 20% or above.
Result: criterion not met

Problem: And CC(=O)CC(c1ccccc1)c1c(O)c2ccccc2oc1=O (configuration not stated) ?
Result: criterion met

Problem: Similarly, `CN/N=C/c1ccc2ccc(=O)oc2c1` ?
Result: criterion met
